# Test system: rumen inoculum
# experimental protocol: Rumen in vitro model
# Design: species or system steer
# experimental parameters: 50 ppm
measured endpoint: TOTAL (% OF CONTROL)

CCCCCCCCCC(=O)N[C@H]1[C@H](Oc2c3cc4cc2Oc2c(Cl)cc(cc2Cl)[C@@H](O)[C@@H]2NC(=O)[C@H](NC(=O)[C@@H]4NC(=O)[C@H]4NC(=O)[C@H](NC(=O)[C@H](NC)c5ccc(O)c(c5)Oc5cc(O)c(Cl)c4c5)[C@H](O)c4ccc(c(Cl)c4)O3)c3ccc(O)c(c3)-c3c(O[C@H]4O[C@H](CO)[C@@H](O)[C@H](O)[C@@H]4O)cc(O)cc3[C@@H](C(=O)O)NC2=O)O[C@H](C(=O)O)[C@@H](O)[C@@H]1O [AAD 216A] = 111
CN[C@H](CC(C)C)C(=O)N[C@H]1C(=O)N[C@@H](CC(N)=O)C(=O)N[C@H]2C(=O)N[C@H]3C(=O)N[C@H](C(=O)N[C@H](C(=O)O)c4cc(O)cc(O)c4-c4cc3ccc4O)[C@H](O)c3ccc(c(Cl)c3)Oc3cc2cc(c3O[C@@H]2O[C@H](CO)[C@@H](O)[C@H](O)[C@H]2O[C@H]2C[C@](C)(N)[C@H](O)[C@H](C)O2)Oc2ccc(cc2Cl)[C@H]1O = 107
CN[C@H]1C(=O)N[C@H]2C(=O)N[C@H](C(=O)N[C@H]3C(=O)N[C@H]4C(=O)N[C@H](C(=O)N[C@H](C(=O)O)c5cc(O)cc(O[C@H]6O[C@H](CO)[C@@H](O)[C@H](O)[C@@H]6O)c5-c5cc4ccc5O)[C@H](O)c4cc(Cl)c(c(Cl)c4)Oc4cc3cc(c4O[C@@H]3O[C@H](C(=O)O)[C@@H](O)[C@H](O)[C@H]3NC(=O)CCCCCCCC(C)C)Oc3ccc(cc3Cl)[C@H]2O)c2cc(cc(O)c2Cl)Oc2cc1ccc2O [AAD 216B] = 111
CN[C@H]1C(=O)N[C@H]2C(=O)N[C@H](C(=O)N[C@H]3C(=O)N[C@H]4C(=O)N[C@H](C(=O)N[C@H](C(=O)O)c5cc(O)cc(O[C@H]6O[C@H](CO)[C@@H](O)[C@H](O)[C@@H]6O)c5-c5cc4ccc5O)[C@H](O)c4cc(Cl)c(c(Cl)c4)Oc4cc3cc(c4O[C@@H]3O[C@H](C(=O)O)[C@@H](O)[C@H](O)[C@H]3NC(=O)CCCCCCCCC(C)C)Oc3ccc(cc3Cl)[C@H]2O)c2cc(cc(O)c2Cl)Oc2cc1ccc2O = 101

====

# Tested on: rumen inoculum
# experimental protocol: Rumen in vitro model
# Parameters: species or system steer
# experimental parameters: 0.5 ppm
measured endpoint: DLAC (% OF CONTROL)

CCCCCCCCCC(=O)N[C@H]1[C@H](Oc2c3cc4cc2Oc2c(Cl)cc(cc2Cl)[C@@H](O)[C@@H]2NC(=O)[C@H](NC(=O)[C@@H]4NC(=O)[C@H]4NC(=O)[C@H](NC(=O)[C@H](NC)c5ccc(O)c(c5)Oc5cc(O)c(Cl)c4c5)[C@H](O)c4ccc(c(Cl)c4)O3)c3ccc(O)c(c3)-c3c(O[C@H]4O[C@H](CO)[C@@H](O)[C@H](O)[C@@H]4O)cc(O)cc3[C@@H](C(=O)O)NC2=O)O[C@H](C(=O)O)[C@@H](O)[C@@H]1O [AAD 216A] = 0

====

Reported VFA by item:
# Test system: rumen inoculum
# experimental protocol: Rumen in vitro model
# Design: species or system steer
# experimental parameters: 50 ppm
measured endpoint: VFA (% Control)

CN[C@H]1C(=O)N[C@H]2C(=O)N[C@H](C(=O)N[C@H]3C(=O)N[C@H]4C(=O)N[C@H](C(=O)N[C@H](C(=O)O)c5cc(O)cc(O[C@H]6O[C@H](CO)[C@@H](O)[C@H](O)[C@@H]6O)c5-c5cc4ccc5O)[C@H](O)c4cc(Cl)c(c(Cl)c4)Oc4cc3cc(c4O[C@@H]3O[C@H](C(=O)O)[C@@H](O)[C@H](O)[C@H]3NC(=O)CCCCCCCCC(C)C)Oc3ccc(cc3Cl)[C@H]2O)c2cc(cc(O)c2Cl)Oc2cc1ccc2O = 101
CCCCCCCCCC(=O)N[C@H]1[C@H](Oc2c3cc4cc2Oc2c(Cl)cc(cc2Cl)[C@@H](O)[C@@H]2NC(=O)[C@H](NC(=O)[C@@H]4NC(=O)[C@H]4NC(=O)[C@H](NC(=O)[C@H](NC)c5ccc(O)c(c5)Oc5cc(O)c(Cl)c4c5)[C@H](O)c4ccc(c(Cl)c4)O3)c3ccc(O)c(c3)-c3c(O[C@H]4O[C@H](CO)[C@@H](O)[C@H](O)[C@@H]4O)cc(O)cc3[C@@H](C(=O)O)NC2=O)O[C@H](C(=O)O)[C@@H](O)[C@@H]1O [AAD 216A] = 111
CN[C@H]1C(=O)N[C@H]2C(=O)N[C@H](C(=O)N[C@H]3C(=O)N[C@H]4C(=O)N[C@H](C(=O)N[C@H](C(=O)O)c5cc(O)cc(O[C@H]6O[C@H](CO)[C@@H](O)[C@H](O)[C@@H]6O)c5-c5cc4ccc5O)[C@H](O)c4cc(Cl)c(c(Cl)c4)Oc4cc3cc(c4O[C@@H]3O[C@H](C(=O)O)[C@@H](O)[C@H](O)[C@H]3NC(=O)CCCCCCCC(C)C)Oc3ccc(cc3Cl)[C@H]2O)c2cc(cc(O)c2Cl)Oc2cc1ccc2O [AAD 216B] = 111

====

# Tested on: rumen inoculum
# experimental protocol: Rumen in vitro model
# Design: species or system steer
# experimental parameters: 0.5 ppm
measured endpoint: % PR

CN[C@H](CC(C)C)C(=O)N[C@H]1C(=O)N[C@@H](CC(N)=O)C(=O)N[C@H]2C(=O)N[C@H]3C(=O)N[C@H](C(=O)N[C@H](C(=O)O)c4cc(O)cc(O)c4-c4cc3ccc4O)[C@H](O)c3ccc(c(Cl)c3)Oc3cc2cc(c3O[C@@H]2O[C@H](CO)[C@@H](O)[C@H](O)[C@H]2O[C@H]2C[C@](C)(N)[C@H](O)[C@H](C)O2)Oc2ccc(cc2Cl)[C@H]1O [Vancomycin] = 105% OF CONTROL

====

Reported IVA by item:
# Tested on: rumen inoculum
# experimental protocol: Rumen in vitro model
# Design: species or system steer
# experimental parameters: 0.5 ppm
measured endpoint: IVA

CCCCCCCCCC(=O)N[C@H]1[C@H](Oc2c3cc4cc2Oc2c(Cl)cc(cc2Cl)[C@@H](O)[C@@H]2NC(=O)[C@H](NC(=O)[C@@H]4NC(=O)[C@H]4NC(=O)[C@H](NC(=O)[C@H](NC)c5ccc(O)c(c5)Oc5cc(O)c(Cl)c4c5)[C@H](O)c4ccc(c(Cl)c4)O3)c3ccc(O)c(c3)-c3c(O[C@H]4O[C@H](CO)[C@@H](O)[C@H](O)[C@@H]4O)cc(O)cc3[C@@H](C(=O)O)NC2=O)O[C@H](C(=O)O)[C@@H](O)[C@@H]1O [AAD 216A] = 70% OF CONTROL
CN[C@H]1C(=O)N[C@H]2C(=O)N[C@H](C(=O)N[C@H]3C(=O)N[C@H]4C(=O)N[C@H](C(=O)N[C@H](C(=O)O)c5cc(O)cc(O[C@H]6O[C@H](CO)[C@@H](O)[C@H](O)[C@@H]6O)c5-c5cc4ccc5O)[C@H](O)c4cc(Cl)c(c(Cl)c4)Oc4cc3cc(c4O[C@@H]3O[C@H](C(=O)O)[C@@H](O)[C@H](O)[C@H]3NC(=O)CCCCCCCCC(C)C)Oc3ccc(cc3Cl)[C@H]2O)c2cc(cc(O)c2Cl)Oc2cc1ccc2O = 82% OF CONTROL
CN[C@H](CC(C)C)C(=O)N[C@H]1C(=O)N[C@@H](CC(N)=O)C(=O)N[C@H]2C(=O)N[C@H]3C(=O)N[C@H](C(=O)N[C@H](C(=O)O)c4cc(O)cc(O)c4-c4cc3ccc4O)[C@H](O)c3ccc(c(Cl)c3)Oc3cc2cc(c3O[C@@H]2O[C@H](CO)[C@@H](O)[C@H](O)[C@H]2O[C@H]2C[C@](C)(N)[C@H](O)[C@H](C)O2)Oc2ccc(cc2Cl)[C@H]1O = 82% OF CONTROL
CC[C@@]1([C@H]2O[C@H]([C@H]3O[C@@](O)(CO)[C@H](C)C[C@@H]3C)C[C@H]2C)CC[C@H]([C@@]2(C)CC[C@]3(C[C@H](O)[C@@H](C)[C@@H]([C@H](C)[C@H](OC)[C@@H](C)C(=O)O)O3)O2)O1 [Monensin Sodium] = 219% OF CONTROL
CN[C@H]1C(=O)N[C@H]2C(=O)N[C@H](C(=O)N[C@H]3C(=O)N[C@H]4C(=O)N[C@H](C(=O)N[C@H](C(=O)O)c5cc(O)cc(O[C@H]6O[C@H](CO)[C@@H](O)[C@H](O)[C@@H]6O)c5-c5cc4ccc5O)[C@H](O)c4cc(Cl)c(c(Cl)c4)Oc4cc3cc(c4O[C@@H]3O[C@H](C(=O)O)[C@@H](O)[C@H](O)[C@H]3NC(=O)CCCCCCCC(C)C)Oc3ccc(cc3Cl)[C@H]2O)c2cc(cc(O)c2Cl)Oc2cc1ccc2O [AAD 216B] = 83% OF CONTROL
